Values from paper PMC9482650

Please respond with reported pKd for every item in the list.
assayed_target: FRMPD2_2, Q68DX3
Sequence (Q68DX3 944-1038): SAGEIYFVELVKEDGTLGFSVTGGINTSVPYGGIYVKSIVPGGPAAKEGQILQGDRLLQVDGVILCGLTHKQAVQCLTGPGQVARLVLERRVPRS
run_description: holdup assay
Parameters: key: below the threshold = too weak to quantify, mostly under pKd 3.1 to 4
condition_notes: plain residues with an end cap or a label only (N-terminal biotin on a linker: ado-ado)
Numbers only.

Example binders with recorded pKd:
[
  {
    "binder": "DDASLPVSDV [PLEKHA1, Q9HB21]",
    "endpoint_result": 4.87
  },
  {
    "binder": "TNSRHGETTV [FZD2, Q14332]",
    "endpoint_result": 3.54
  },
  {
    "binder": "EIPAQSPTCV [FZD10, Q9ULW2]",
    "endpoint_result": 3.74
  }
]

Give measured pKd for every item shown.
1. TGLWKHETTV [ADGRA3, Q8IWK6]
2. DGVNEKVSCV [HTR2A, P28223]
3. ARGPPRESEV [FAM110D, Q8TAY7]
4. VLYPREGTEV [FOXI1, Q12951]
5. SFISKKEWYV [NECTIN1, Q15223]
6. NTANRRTTPV [CACNG2, Q9Y698]
7. SLNANEVEWF [RNF130, Q86XS8]

[3.76, 4.65, 3.5, 3.54, 3.87, 3.59, 3.59]

Requested field: pKd. Item: ELSATVTTDC [TRIP6, Q15654]
3.47
